Source listed as PubChem BioAssay AID1159580.

# measurement_notes: chemical genetic growth profiling, strain panel (AID 1159580);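 also: tested at 20 µM; growth read once vehicle control cultures reached saturation at 30 °C; 1 = growth at the plate median or of vehicle wells; lower values mean less growth of the strain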
# condition_set: S. cerevisiae deletion strains, growth OD, locus YLR221C, strain rsa3
Among all 5,500 compounds or so, about 2,000 (36%) were called active. Roughly 18% stayed inconclusive and do not appear here. Rule as the data show it: active = normalized growth mostly below about 0.91 (no sharp cut-off); inconclusive = no clear call, values can overlap the other calls; inactive = mostly above about 0.92. This is one part of the list.
Possible outcomes: TRUE (active), FALSE (inactive)

1. CC(=O)O[C@H]1CCC2(C)C3=C(CCC2C1(C)C)[C@@]1(C)CC[C@@H](C(C)CCC=C(C)C)[C@]1(C)CC3 (stereo not given in full)	FALSE
2. CN(C)CCCN1c2ccccc2CCc2ccc(Cl)cc21	FALSE
3. CC12CCC(=O)C=C1CCC1C2[C@@H](O)CC2(C)C1CC[C@]2(O)C(=O)COP(=O)(O)O (stereo not given in full)	FALSE
4. CC1=CC(=O)c2c(O)cccc2C1=O	TRUE
5. CN(C)CCCN1c2ccccc2Sc2ccccc21	FALSE

* * *

# measurement_notes: chemical genetic growth profiling, strain panel (AID 1159580);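 also: tested at 20 µM; growth read once vehicle control cultures reached saturation at 30 °C; 1 = growth at the plate median or of vehicle wells; lower values mean less growth of the strain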
# condition_set: S. cerevisiae deletion strains, growth OD, locus YLR342W, strain FKS1 (second series), active compounds read low
In all, about 5,500 compounds went through this assay and about 2,000 (36%) were called active. Inconclusive results (about 18%) are left out. The list shows a part of the results.
value_kind: normalized growth

1) Cc1cc(=O)[nH]c(=S)[nH]1	1 (inactive)
2) CC(=O)N[C@@H](Cc1c[nH]c2ccccc12)C(N)=O	1.07 (inactive)
3) CC(=O)c1ccc(O)c(CC=C(C)C)c1	0.95 (inactive)
4) CC(C)(C)NCC(O)c1ccc(O)c(CO)c1 (stereo unspecified)	1.04 (inactive)
5) CCCc1cc(=O)[nH]c(=S)[nH]1	1 (inactive)
6) OC[C@H]1O[C@@](CO)(O[C@@H]2O[C@H](CO)[C@@H](O)[C@H](O)[C@H]2O)[C@@H](O[C@@H]2O[C@H](CO)[C@@H](O)[C@H](O)[C@H]2O)[C@@H]1O	1.08 (inactive)
7) CNNC	1.01 (inactive)
8) CN(C)c1ccc(O)c2c1C[C@H]1C[C@H]3[C@H](N(C)C)C(=O)C(C(N)=O)=C(O)[C@@]3(O)C(=O)C1=C2O	0.851 (inactive)
9) CC(CCc1ccccc1)NCC(O)c1ccc(O)c(C(N)=O)c1 (stereo unspecified)	1.08 (inactive)
10) CCOC(=O)[C@H](CCc1ccccc1)N[C@@H](C)C(=O)N1CCC[C@H]1C(=O)O	1 (inactive)
11) COc1cc(C(C)=O)cc(OC)c1O	1 (inactive)

* * *

# measurement_notes: chemical genetic growth profiling, strain panel (AID 1159580);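 also: tested at 20 µM; growth read once vehicle control cultures reached saturation at 30 °C; 1 = growth at the plate median or of vehicle wells; lower values mean less growth of the strain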
# condition_set: S. cerevisiae deletion strains, growth OD, locus YDL192W, strain arf1
The whole screen tested about 5,500 compounds, of which about 2,000 (36%) were called active. Another 18% or so got no clear call; they are omitted. Cut-off read from the data, not from the text of the source: active = normalized growth mostly below about 0.91 (no sharp cut-off); inconclusive = no clear call, values can overlap the other calls; inactive = mostly above about 0.92. This is one part of the list.
Possible outcomes: active, inactive

1) N[C@@H](CCC(=O)N[C@@H](CS)C(=O)NCC(=O)O)C(=O)O	inactive
2) C[C@H](CCC(=O)O)[C@H]1CCC2C3C(=O)CC4CC(=O)CC[C@]4(C)C3CC(=O)[C@@]21C (some centres undefined)	inactive
3) CCN(CC)CCOC(=O)C1(C2CCCCC2)CCCCC1	inactive
4) CCN(CC)CCOC(=O)C(c1ccccc1)C1CCCCC1 (centres undefined)	inactive
5) CC(=O)N[C@@H](Cc1c[nH]c2ccccc12)C(N)=O	inactive
6) NC(Cn1ccc(=O)c(O)c1)C(=O)O (centres undefined)	inactive
7) CC(=O)O[C@@H]1C=C[C@@]2(C)C(C[C@@H](OC(C)=O)[C@@]3(C)C4=CC(=O)O[C@@H](c5ccoc5)[C@]4(C)CCC23)C1(C)C (some centres undefined)	active
8) O=P1(N(CCCl)CCCl)NCCCO1 (centres undefined)	inactive
9) Nc1ccc(S(=O)(=O)NC(=O)c2ccccc2)cc1	inactive
10) O=C(NCO)c1cccnc1	inactive
11) CC(C)CCCC(C)C1CCC2C3C[C@@H](O)[C@@]4(O)C[C@@H](O)CC[C@]4(C)C3CC[C@]12C (some centres undefined)	inactive
12) CN(C)CCCN1c2ccccc2CCc2ccccc21	inactive
13) Cc1ccc2c(c1)C1(C)CCCC(C)(C(=O)O)C1CC2 (centres undefined)	inactive
14) CCOC(=O)NNc1nncc2ccccc12	inactive
15) CCCc1c(OCCCCc2nn[nH]n2)ccc(C(C)=O)c1O	inactive
16) COc1ccc(C2Sc3ccccc3N(CCN(C)C)C(=O)C2OC(C)=O)cc1 (centres undefined)	inactive
17) CC(C)CCCC(C)[C@H]1CCC2C3CC[C@@H]4C[C@H](O)CC[C@]4(C)C3CC[C@@]21C (some centres undefined)	inactive
18) CN(C)CCCN1c2ccccc2Sc2ccc(Cl)cc21	inactive
19) CC[N+](C)(C)c1cccc(O)c1	inactive
20) NS(=O)(=O)c1cc2c(cc1Cl)NC(CSCc1ccccc1)=NS2(=O)=O	inactive
21) CC12CCC(=O)C=C1CCC1C2[C@@H](O)CC2(C)C1CC[C@]2(O)C(=O)COP(=O)(O)O (some centres undefined)	inactive
22) CC(C)c1ccc2c(c1)CCC1C(C)(C(N)=O)CCCC21C (centres undefined)	active
23) CN(C)CCCN1c2ccccc2Sc2ccccc21	inactive
24) O=C(O)c1cc(O)c2c(c1)[C@@H]([C@H]1c3cc(C(=O)O)cc(O)c3C(=O)c3c(O[C@H]4O[C@H](CO)[C@@H](O)[C@H](O)[C@H]4O)cccc31)c1cccc(O[C@H]3O[C@H](CO)[C@@H](O)[C@H](O)[C@H]3O)c1C2=O	inactive
25) COc1ccc([C@@H]2CC(=O)c3c(O)cc(O[C@@H]4O[C@H](CO[C@H]5O[C@@H](C)[C@H](O)[C@@H](O)[C@H]5O)[C@@H](O)[C@H](O)[C@H]4O)cc3O2)cc1O	inactive
26) CC(C)CCCC(C)C1CCC2C3=CC[C@H]4C[C@@H](O)CC[C@]4(C)C3CC[C@@]21C (some centres undefined)	inactive
27) O=C(OCc1ccccc1)c1ccccc1	inactive
28) CC(=O)Oc1ccc(O)cc1	inactive
29) CCC(C)C(=O)OC1[C@@H]2CC3=C4CC(=O)O[C@@H](c5ccoc5)[C@]4(C)CCC3[C@@](C)(C2=O)[C@@H](CC(=O)OC)C1(C)C (some centres undefined)	inactive
30) CC(C)(C)NCC(O)c1ccc(O)c(CO)c1 (centres undefined)	inactive
31) O=C(O)C1=CCCNC1	inactive
32) CC(=O)Oc1ccc(C(c2ccc(OC(C)=O)cc2)c2ccccn2)cc1	inactive
33) CC(C)=CC1C(C(=O)O)C1(C)C (centres undefined)	inactive
34) CCCOc1ccc2nc(NC(=O)OC)[nH]c2c1	inactive
35) COc1ccc2cc(CCC(C)=O)ccc2c1	active
36) CNCCCC12CCC(c3ccccc31)c1ccccc12	inactive
37) CC(=O)c1cc(CC=C(C)C)c(O)c(CC=C(C)C)c1	inactive
38) Nc1ccc(C(=O)O)cc1	inactive
39) CC(C)c1ccc2c(c1)CCC1[C@](C)(CN)CCC[C@]21C (some centres undefined)	active
40) CN(C)CCCN1c2ccccc2Sc2ccc(C(F)(F)F)cc21	inactive
41) NCCCCCCNS(=O)(=O)c1cccc2c(Cl)cccc12	inactive
42) CC(C)CCCC(C)C1CCC2C3CC(=O)[C@H]4C[C@@H](O)CC[C@]4(C)C3CC[C@]12C (some centres undefined)	inactive
43) CC(C)CC1NC(=O)CNC1=O (centres undefined)	inactive
44) CC(=O)Oc1ccc(/C=C/c2cc(OC(C)=O)cc(OC(C)=O)c2)cc1	inactive

* * *

# measurement_notes: chemical genetic growth profiling, strain panel (AID 1159580);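 also: tested at 20 µM; growth read once vehicle control cultures reached saturation at 30 °C; 1 = growth at the plate median or of vehicle wells; lower values mean less growth of the strain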
# condition_set: S. cerevisiae deletion strains, growth OD, locus YBR229C, strain ROT2
In all, about 5,500 compounds went through this assay and about 2,000 (36%) were called active. Another 18% or so got no clear call; they are omitted. Rule as the data show it: active = normalized growth mostly below about 0.91 (no sharp cut-off); inconclusive = no clear call, values can overlap the other calls; inactive = mostly above about 0.92. The list shows a part of the results.
Possible outcomes: 1 (active), -1 (inactive)

1. N=C(N)N	-1
2. Cc1onc(-c2c(Cl)cccc2Cl)c1NC(=O)O/N=C\c1ccc(N(C)C)cc1	-1
3. c1ccc(CN2CCC(n3nnc4cccnc43)CC2)cc1	-1
4. CC(C)=CCc1c2c(c3occ(-c4ccc(O)c(O)c4)c(=O)c3c1O)C=CC(C)(C)O2	1
5. CC(C)=CCc1c2c(c3occ(-c4ccc(O)cc4)c(=O)c3c1O)C=CC(C)(C)O2	-1
6. COC(=O)C/C(N)=C(\C#N)C(=O)OC	-1
7. CC(C)CCCC(C)C1CC[C@@]2(C)C3=C(CC[C@]12C)[C@@]1(C)CC[C@H](O)C(C)(C)C1CC3 (stereo partly specified)	-1
8. Cc1ccc(-c2nn[nH]n2)cc1Cl	-1
9. CNCCCC12CCC(c3ccccc31)c1ccccc12	-1
10. CC(C)=CCCC(C)C1CC[C@@]2(C)C3=C(CC[C@]12C)C1(C)CC[C@H](O)C(C)(C)C1CC3 (stereo partly specified)	-1
11. CC(=O)O[C@H]1CCC2(C)C3=C(CCC2C1(C)C)[C@@]1(C)CC[C@@H](C(C)CCC=C(C)C)[C@]1(C)CC3 (stereo partly specified)	-1
12. CN(C)[C@@H]1C(=O)C(C(N)=O)=C(O)[C@@]2(O)C(=O)C3=C(O)c4c(O)ccc(Cl)c4[C@@H](O)[C@H]3C[C@@H]12	-1
13. NNC(=S)Nc1ccc2c(c1)OCCO2	-1
14. C=C1C[C@]23C[C@@]1(O)CC[C@H]2[C@@]12C=C[C@H](O)[C@@](C)(C(=O)O1)[C@H]2[C@@H]3C(=O)O	-1
15. CS(=O)(=O)c1ccc([C@@H](O)[C@@H](CO)NC(=O)C(Cl)Cl)cc1	-1
16. N/C(=N/OC(=O)c1ccccc1)c1ccc(-c2csnn2)cc1	-1
17. CCCc1cc(=O)oc2cc(OCC(=O)OCC)ccc12	-1
18. O=C(O)CSC1CCS(=O)(=O)C1 (stereo unspecified)	-1
19. CCOC(=O)[C@H](CCc1ccccc1)N[C@@H](C)C(=O)N1CCC[C@H]1C(=O)O	-1
20. CCCc1cc(=O)oc2c1c(C)nn2-c1ccccc1	-1
21. CN(C)C(=O)Oc1cccc([N+](C)(C)C)c1	-1
